- Experimental target: T1, CEACAM1 antigen (Sino Biological, Inc.) (UniProt P13688 35-428)
- T1 construct: Bought antigen coated on the ELISA plate; construct not described; also called CEACAM1 (CD66a) antigen; CD66a
- T1 sequence (looked up): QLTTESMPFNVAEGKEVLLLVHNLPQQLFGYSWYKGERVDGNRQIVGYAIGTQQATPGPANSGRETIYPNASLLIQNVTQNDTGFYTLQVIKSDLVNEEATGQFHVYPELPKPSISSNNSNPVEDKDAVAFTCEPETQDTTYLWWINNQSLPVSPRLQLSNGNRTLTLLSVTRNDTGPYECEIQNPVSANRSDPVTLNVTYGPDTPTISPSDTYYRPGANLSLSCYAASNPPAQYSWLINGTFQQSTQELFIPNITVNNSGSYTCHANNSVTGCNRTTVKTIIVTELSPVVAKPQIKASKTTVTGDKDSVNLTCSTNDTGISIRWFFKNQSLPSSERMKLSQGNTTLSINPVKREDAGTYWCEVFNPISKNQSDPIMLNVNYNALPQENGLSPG
- Test: ELISA, coated CEACAM1 100 ng/well, antibody 370.37 ng/ml
Measurement kind: OD 450 nm (OD)
# value in OD; strip the unit string

recombinant humanized anti-CD66c antibody Protein ID 2938 (Vk5 + VH7) (antibody, human IgG1, V domains shown, also called hu 2938) VH: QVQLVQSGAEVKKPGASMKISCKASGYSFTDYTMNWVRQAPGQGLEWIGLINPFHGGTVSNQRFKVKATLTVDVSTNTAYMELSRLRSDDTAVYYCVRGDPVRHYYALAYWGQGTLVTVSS VL: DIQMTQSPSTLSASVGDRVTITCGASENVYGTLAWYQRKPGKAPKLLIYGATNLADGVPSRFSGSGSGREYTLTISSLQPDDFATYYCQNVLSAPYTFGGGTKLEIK
0.14

Challenge: I am curious: what OD 450 nm value has been reported for recombinant humanized anti-CD66c antibody Protein ID 3058 (Vk8 + VH11) (antibody, human IgG1, V domains shown, also called hu 3058; #86) VH: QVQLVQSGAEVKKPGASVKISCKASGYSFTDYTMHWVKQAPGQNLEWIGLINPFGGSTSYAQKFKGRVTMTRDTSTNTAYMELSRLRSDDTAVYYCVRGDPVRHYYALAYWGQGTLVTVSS VL: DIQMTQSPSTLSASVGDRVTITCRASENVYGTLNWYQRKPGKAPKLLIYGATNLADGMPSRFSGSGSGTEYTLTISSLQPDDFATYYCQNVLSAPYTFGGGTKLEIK ?
Response given: 0.12

Challenge: I am curious: what OD 450 nm value has been reported for anti-CD66c chimeric antibody 8F5 (antibody, human IgG1, V domains shown, also called chimeric 8F5 antibody; chi 8F5) VH: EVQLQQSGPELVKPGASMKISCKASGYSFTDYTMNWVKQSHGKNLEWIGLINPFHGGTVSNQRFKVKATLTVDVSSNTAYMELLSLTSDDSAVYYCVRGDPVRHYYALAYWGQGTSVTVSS VL: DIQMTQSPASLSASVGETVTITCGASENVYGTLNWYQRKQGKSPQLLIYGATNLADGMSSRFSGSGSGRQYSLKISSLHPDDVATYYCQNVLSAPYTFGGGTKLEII ?
Response given: 1.13

Challenge: I am curious: what OD 450 nm value has been reported for recombinant humanized anti-CD66c antibody Protein ID 3007 (Vk7 + VH6) (antibody, human IgG1, V domains shown, also called hu 3007; #43) VH: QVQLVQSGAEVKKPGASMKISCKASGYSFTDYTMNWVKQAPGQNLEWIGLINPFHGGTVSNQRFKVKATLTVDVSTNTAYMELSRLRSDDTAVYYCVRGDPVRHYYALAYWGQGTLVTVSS VL: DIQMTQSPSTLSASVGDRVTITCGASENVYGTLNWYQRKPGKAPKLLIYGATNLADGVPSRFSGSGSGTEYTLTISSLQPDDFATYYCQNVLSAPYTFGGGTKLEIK ?
Response given: 0.92
